Tested on: BT-549 breast
measurementNotes: NCI tumour cell line growth inhibition, 48 h
propertyLabel: TGI

Here is how some compounds turned out for TGI.
>>> print(df.to_string())
                                   compound  propertylabel  resultvalue
0  CC(C)(C)/C(O)=C\c1nc2cc(F)c(F)cc2[nH]c1=O            TGI     > 100 µM
1  O=C1c2cc3c(cc2-c2c1c1ccc(Cl)cc1c(=O)n2CCCn1ccnc1)OCO3            TGI     > 100 µM
2  O=C1CSC(c2c[nH]c3ccccc23)N1c1ccc(Cl)cc1Cl (stereo unspecified)            TGI     > 100 µM
3  Oc1ccccc1/C=N/N1C(=S)N(C23CC4CC(CC(C4)C2)C3)C(=Nc2ccccc2)C1=Nc1ccccc1            TGI     > 100 µM
4  NC(Cc1ccccc1)c1nccs1 (stereo unspecified)            TGI     > 100 µM

Now let's try a different one.
Documented TGI of OC(CC(O)(C(F)(F)Cl)C(F)(F)Cl)c1ccccc1 (stereo unspecified) : > 10 µM

###

System: HOP-62 NSCLC
measurementNotes: NCI tumour cell line growth inhibition, 48 h
propertyLabel: TGI

Here is how some compounds turned out for TGI.
In [3]: df
Out[3]:
                                   compound  resultvalue
0  CN1c2ccccc2C2=C(c3ccccc3)CC[C@@H](C(=O)N3C4CC5CC[C@@]4(CS3(=O)=O)C5(C)C)[C@@H]21 (some centres undefined)     > 100 µM
1  O=C1C=CC(=O)c2c(O)c(N3CCC[C@@H]3CO)c(Cl)c(O)c21      3.06 µM
2  COc1cc2c(c(OC)c1)[C@H](C)N(Cc1ccccc1)C(C)C2 (some centres undefined)     > 100 µM
3                  CCOC(=O)/C=C/c1cccc(F)c1     > 100 µM

Documented TGI of O=C1N=C(Nc2nc(-c3csc(NC4=NC(=O)/C(=C\c5ccccc5)S4)n3)cs2)S/C1=C/c1ccccc1 : 46.3 µM

Documented TGI of N#CCCN(CCC#N)c1ccc(C(N=Nc2ccccc2)=Nc2ccc(F)cc2)cc1 : > 100 µM

Documented TGI of CSc1nc(Cl)c2c(n1)Sc1nc3ccccc3n1C2O (centres undefined) : > 79 µM

Documented TGI of COc1ccc(C2C=C(c3ccc(C)cc3)N(c3ccc(OC)cc3[N+](=O)[O-])C3C(=O)OC(=O)C23)c(OC)c1 (centres undefined) : > 100 µM

Documented TGI of O=C([O-])CC(=O)[O-].[NH-][C@@H]1CCCC[C@H]1[NH-].[Pt+4] : > 100 µM

###

System: SNB-75 CNS
measurementNotes: NCI tumour cell line growth inhibition, 48 h
propertyLabel: TGI (µM)
Just the number in µM, nothing appended.

Here is how some molecules turned out for TGI.
molecule	resultValue
CCOC(=O)C(NC(=O)c1cccc(Cl)c1)(Nc1cccc(C)c1)C(F)(F)F (stereo not drawn)	43.9
COC1(CC[C@H](C)COC2OC(CO)C(O)C(O)C2O)O[C@H]2C[C@H]3[C@@H]4CC=C5C[C@@H](OC6OC(CO)C(OC7OC(C)C(O)C(O)C7O)C(O)C6OC6OC(C)C(O)C(O)C6O)CC[C@]5(C)[C@H]4CC[C@]3(C)[C@H]2[C@@H]1C (stereo partly drawn)	3.8
CC(=O)Oc1ccc2c(-c3ccccc3)c(Oc3ccc(Cl)cc3)c(=O)oc2c1	19.5

Now let's try a different one.
Documented TGI of O=C1C=CC(=O)c2c(O)c(N3CCC[C@@H]3CO)c(Cl)c(O)c21 : 3.12

###

Test system: MDA-MB-231 breast
measurementNotes: NCI tumour cell line growth inhibition, 48 h
propertyLabel: TGI

molecule	propertyLabel	resultValue
CC/C=N\N1C(N)=C(C#N)C(C#N)(C#N)C1CC (centres undefined)	TGI	> 100 µM

Documented TGI of CC/C(=C/c1ccc(OC)cc1OC)[N+](=O)[O-] : 8.96 µM

###

Let's look at some molecules and their measured TGI.
Test system: OVCAR-3 ovarian
measurementNotes: NCI tumour cell line growth inhibition, 48 h

Here is how some molecules turned out for TGI.
molecule	testedSystem	TGI
NC(Cc1ccccc1)c1nccs1 (centres undefined)	OVCAR-3 ovarian	> 100 µM
C/C(=C\CSCC(N)C(=O)O)CC/C=C(\C)CNc1ccccc1 (centres undefined)	OVCAR-3 ovarian	> 100 µM

Documented TGI of Cc1cccc2c1[nH]c(=O)c1c3ccccc3cn21 : 28.2 µM

Documented TGI of COC(=O)C1CCc2nnc(-c3ccccc3)n21 (centres undefined) : > 100 µM

Documented TGI of COc1cc2cnc3c4cc(OCc5ccccc5)ccc4ccc3c2cc1OC : > 100 µM

Documented TGI of O=C([O-])CC(=O)[O-].[NH-][C@@H]1CCCC[C@H]1[NH-].[Pt+4] : > 100 µM

Documented TGI of CC1(C)OCC(C2OC(C)(C)OC2[C@H]2O[C@@]3(O)[C@H]4[C@H](C=CC[C@@H]42)[C@@H](OCc2ccccc2)[C@H](OCc2ccccc2)[C@H]3OCc2ccccc2)O1 (some centres undefined) : > 100 µM

Documented TGI of CC1(C)C=C(/C=C2/N(S(=O)(=O)C(F)(F)F)C(/C=C3/N(S(=O)(=O)C(F)(F)F)C(C)(C#N)CC3(C)C)=CC2(C)C)N=C1/C=C1/CC(C)(C)C(=O)N1 (centres undefined) : > 100 µM

Documented TGI of CN1C2=Nc3n(c4ccccc4[n+]3C)CN2c2ccccc21 : 34.7 µM

###

Tested on: NCI-H460 lung
measurementNotes: NCI tumour cell line growth inhibition, 48 h
propertyLabel: TGI

compound	resultValue
C=C(C)[C@@H]1CC[C@]2(C(=O)NS(=O)(=O)c3ccccc3)CC[C@]3(C)[C@H](CC[C@@H]4[C@@]5(C)CC[C@H](OC(=O)NS(=O)(=O)c6ccccc6)C(C)(C)[C@@H]5CC[C@]43C)[C@@H]12	3.26 µM
CCn1c2ccccc2c2cc(C(=O)c3ccc(C)c4ccccc34)ccc21	> 100 µM
COc1ccc([C@@H]2OC(=O)C3C2C(=O)O[C@H]3c2ccc(OC)c(OC)c2)cc1OC (some centres undefined)	> 100 µM

Now let's try a different one.
Value (TGI, NCI-H460 lung) for record C[CH2][Sn]([CH2]C)([O]C(=O)c1ccc(F)cc1)[O]C(=O)c1ccc(F)cc1 = > 100 µM

###

Let's look at some molecules and their measured GI50.
Tested on: TK-10 renal
measurementNotes: NCI tumour cell line growth inhibition, 48 h

Here is how some molecules turned out for GI50.
In [3]: df
Out[3]:
                                   molecule  resultvalue
0  COc1cc(NCCCCCN=C(N)NC(N)=NC(C)C)c2ncccc2c1      6.14 µM
1       CCn1c(-c2nonc2N)nc2c(N3CCCC3)nccc21      9.31 µM
2  O=C(Nc1cccc(C(F)(F)F)c1)Oc1ccc(Cl)c2cccnc12       4.1 µM
3  CC(C)(C)OC(=O)Nc1ccc2c(c1)C(NC(=O)Nc1cccc(C#N)c1)CC(C)(C)O2 (stereo unspecified)      6.14 µM
4  CS(=O)(=O)N(c1cc(-c2ccc3ncnc(Nc4ccc(F)c(Cl)c4)c3c2)cnc1Cl)S(C)(=O)=O      0.44 µM

Now let's try a different one.
Documented GI50 of COc1cc2c3c(n(CCCNCCCN)c(=O)c2cc1OC)-c1cc2c(cc1C3=O)OCO2 : 9.74 µM

###

Let's look at some molecules and their measured TGI.
System: UACC-62 melanoma
measurementNotes: NCI tumour cell line growth inhibition, 48 h

Here is how some molecules turned out for TGI.
molecule	propertyLabel	resultValue
CC1=C(C(=O)OCCO[N+](=O)[O-])C(c2ccccc2[N+](=O)[O-])C(C(=O)OC(C)C)=C(C)N1 (centres undefined)	TGI	28.6 µM
N#C/C(C(=O)NCc1ccccc1)=C(/N)N1CCCC1	TGI	> 100 µM
COc1ccc([C@@H]2OC(=O)C3C2C(=O)O[C@H]3c2ccc(OC)c(OC)c2)cc1OC (some centres undefined)	TGI	> 100 µM
CC[C@]12C=CCN3CCC4(c5cc([C@@]6(C(=O)OC)CC7CN(CCc8c6[nH]c6ccccc86)CC6CCCCC67)c(OC)cc5N(C)C4[C@](O)(C(=O)OC)C1OC(C)=O)[C@@H]32 (some centres undefined)	TGI	1.7 µM
NC(=O)c1ccc(Cl)c([N+](=O)[O-])c1	TGI	> 100 µM
CN1c2ccccc2C2=C(c3ccccc3)CC[C@@H](C(=O)N3C4CC5CC[C@@]4(CS3(=O)=O)C5(C)C)[C@@H]21 (some centres undefined)	TGI	> 100 µM
CSc1nc(=O)c2nc(-c3cccs3)c(-c3cccs3)nc2n1C	TGI	> 100 µM
COc1ccc2c(c1)CN1CCc3c(cc(OC)c(OC)c3OC)C1C2 (centres undefined)	TGI	> 100 µM

Now let's try a different one.
Documented TGI of N#Cc1cccc(C2C3=C(COC3=O)N(CCO)c3cc4c(cc32)OCO4)c1 (centres undefined) : > 50 µM
